- target-desc: human NTCP (Homo sapiens)
- assay-overview: Screening fluorescent competitive Myrcludex B-FITC binding assay (96-well, 10 µM drug)
- conditions: Prestwick library screen, Myrcludex B-FITC binding, 10 µM drug
Structures can show the parent of a compound that is named as a salt.
Label rule, in plain words: B-score binding assay of 0.3 and up is true (1), under 0.3 is false (0).

Check out these entries, answers already filled in.
compound="Cc1cc(-c2ccccc2)nnc1NCCN1CCOCC1 [Minaprine dihydrochloride]" category="false (0)"
compound=C[C@](N)(Cc1ccc(O)c(O)c1)C(=O)O category="false (0)"
compound="CC1(C)O[C@@H]2C[C@H]3[C@@H]4C[C@H](F)C5=CC(=O)C=C[C@]5(C)[C@H]4[C@@H](O)C[C@]3(C)[C@]2(C(=O)CO)O1 [Flunisolide]" category="false (0)"
compound=NC(=O)c1ncn([C@@H]2O[C@H](CO)[C@@H](O)[C@H]2O)n1 category="false (0)"

Proceed to the following item.
B-score binding assay >= 0.3 for NS(=O)(=O)c1cc2c(cc1Cl)NC(CC1CCCC1)NS2(=O)=O (centres unmarked) [Cyclopenthiazide] ?
true (1)

* * *

- target-desc: human NTCP (Homo sapiens, UniProt Q14973)
- Sequence (Q14973 whole entry): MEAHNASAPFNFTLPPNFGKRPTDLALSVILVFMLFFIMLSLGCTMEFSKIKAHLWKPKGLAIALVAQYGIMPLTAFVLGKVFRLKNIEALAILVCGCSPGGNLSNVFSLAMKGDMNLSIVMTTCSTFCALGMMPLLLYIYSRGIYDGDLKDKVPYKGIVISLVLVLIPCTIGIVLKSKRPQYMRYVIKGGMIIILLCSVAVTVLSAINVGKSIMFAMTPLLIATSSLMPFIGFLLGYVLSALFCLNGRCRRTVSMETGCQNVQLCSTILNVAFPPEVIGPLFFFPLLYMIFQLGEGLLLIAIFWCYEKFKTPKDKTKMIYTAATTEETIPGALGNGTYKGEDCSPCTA
- assay-overview: Screening taurocholate uptake assay (96-well, [14C]taurocholate, 10 µM drug)
- conditions: screen, 10 µM drug, taurocholate uptake
Structures can show the parent of a compound that is named as a salt.
reported-metric: B-score functional assay
Reply with just the number.

Previously resolved entries follow.
molecule="COc1ccc(C(CN(C)C)C2(O)CCCCC2)cc1 (stereo not shown)" reported_value=-0.102
molecule=NCCCC[C@H](N[C@@H](CCc1ccccc1)C(=O)O)C(=O)N1CCC[C@H]1C(=O)O reported_value=1.757
molecule="N=C(N)NC(=O)c1nc(Cl)c(N)nc1N [Amiloride hydrochloride dihydrate]" reported_value=-1.628
molecule="CN(C)CCCN1c2ccccc2Sc2ccc(C(F)(F)F)cc21 [Triflupromazine hydrochloride]" reported_value=-0.264

# lookup: B-score functional assay of COc1cccc(C2(O)CCCCC2CN(C)C)c1.Cl (stereo not shown) [Tramadol hydrochloride]
0.906

Which B-score functional assay is listed for O=c1oc2ccccc2c(O)c1Cc1c(O)c2ccccc2oc1=O ?
-1.792

Which B-score functional assay value belongs to Cc1cc(=O)oc2cc(O)ccc12 ?
-0.811

* * *

- target-desc: human NTCP (Homo sapiens, UniProt Q14973)
- assay-overview: Screening taurocholate uptake assay (96-well, [14C]taurocholate, 10 µM drug)
- conditions: ranking score beside the functional and binding assay B-scores of the screen
Listing of entries alongside the reported Ranking score.
Note: the reply should be a number with no unit written.

compound="Cc1cn[nH]c1 [Fomepizole]" reported_value=795.707
compound=CC1(C)S[C@@H]2[C@H](NC(=O)Cc3ccccc3)C(=O)N2[C@H]1C(=O)O.CC1(C)S[C@@H]2[C@H](NC(=O)Cc3ccccc3)C(=O)N2[C@H]1C(=O)O.c1ccc(CNCCNCc2ccccc2)cc1 reported_value=672.134
compound=CN1C(C(=O)Nc2ccccn2)=C(O)c2ccccc2S1(=O)=O reported_value=662.993
compound=CC(=O)S[C@@H]1CC2=CC(=O)CC[C@]2(C)[C@H]2CC[C@@]3(C)[C@@H](CC[C@@]34CCC(=O)O4)[C@H]12 reported_value=751.977

GET /values?readout=Ranking score&item= C[C@@]12N[C@@H](Cc3ccccc31)c1ccccc12.O=C(O)/C=C\C(=O)O [(-)-MK 801 hydrogen maleate]
690.814
